tested on: RNA polymerase II Serine 5 phosphorylation (CDK7) in A549 cells
pIC50: −log10 of the molar value.
REPORTED METRIC: pIC50

Example entries and their recorded answers appear below.
{"MOLECULE": "C=CC(=O)N1CCC(N2CCC(c3cc4c(c(C)n3)OCc3c(ncnc3N3CCS(=O)(=O)CC3)N4)CC2)CC1", "pIC50": 6.82}
{"MOLECULE": "C=CC(=O)N1CC(N2CC[C@H](c3cc4c(c(C)n3)OCc3c(ncnc3N3CCS(=O)(=O)CC3)N4)C2)C1", "pIC50": 5.56}
{"MOLECULE": "C=CC(=O)N1CC(N2CCC(c3cc(C)c4c(c3)Nc3ncnc(N5CCC(S(C)(=O)=O)C5)c3CO4)CC2)C1 (stereo not drawn)", "pIC50": 5.19}
{"MOLECULE": "C=CC(=O)N1CC[C@H](N2CC(c3cc4c(c(C5CC5)c3)OCc3c(ncnc3N3CCS(=O)(=O)CC3)N4)C2)C1 (single isomer, unassigned)", "pIC50": 6.27}

P = C=CC(=O)N1CC(N2CCC(c3ccc4c(c3)Nc3ncnc(N5CCOCC5)c3CO4)CC2C)C1 (stereo not drawn)
Q = C=CC(=O)N1CC(N2CC[C@H](c3ccc4c(c3)Nc3ncnc(N5CCOCC5)c3CO4)C2)C1 (single isomer, unassigned)
Ask: Which is greater in pIC50, the first item P or the second item Q ? Return value: the label identifying the chosen record.
Result: P
(P: 6.00, Q: 5.68)

###

biological target: CDK7/cyclinH/MAT1 trimeric complex (Homo sapiens (Human), UniProt P50613); assay: In vitro CDK7 assay, potency of irreversible covalent inhibitors (kinact/KI); conditions: read-out: CDK7 (20 nM enz.) (kinact, s^−1), 20 nM enz.
Sequence (P50613 whole entry): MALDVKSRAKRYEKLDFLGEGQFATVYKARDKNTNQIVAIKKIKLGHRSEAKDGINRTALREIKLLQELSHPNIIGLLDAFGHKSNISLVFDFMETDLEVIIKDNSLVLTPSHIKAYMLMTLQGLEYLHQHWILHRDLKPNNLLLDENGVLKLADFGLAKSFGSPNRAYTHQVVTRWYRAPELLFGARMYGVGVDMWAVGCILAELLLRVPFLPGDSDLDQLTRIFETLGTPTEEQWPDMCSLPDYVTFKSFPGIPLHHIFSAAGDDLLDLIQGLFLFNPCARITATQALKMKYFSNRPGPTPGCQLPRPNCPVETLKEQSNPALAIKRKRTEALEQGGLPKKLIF
Sequence (P51946 whole entry partner): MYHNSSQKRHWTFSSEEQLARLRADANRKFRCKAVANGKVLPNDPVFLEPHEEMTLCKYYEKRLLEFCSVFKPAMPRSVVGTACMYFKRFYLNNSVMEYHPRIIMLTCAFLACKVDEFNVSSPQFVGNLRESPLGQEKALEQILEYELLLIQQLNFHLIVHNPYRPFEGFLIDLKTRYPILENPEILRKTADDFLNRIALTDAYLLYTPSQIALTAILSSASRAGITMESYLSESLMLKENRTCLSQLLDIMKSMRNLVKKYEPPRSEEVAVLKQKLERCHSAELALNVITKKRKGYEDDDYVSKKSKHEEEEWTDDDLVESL
Sequence (P51948 whole entry partner): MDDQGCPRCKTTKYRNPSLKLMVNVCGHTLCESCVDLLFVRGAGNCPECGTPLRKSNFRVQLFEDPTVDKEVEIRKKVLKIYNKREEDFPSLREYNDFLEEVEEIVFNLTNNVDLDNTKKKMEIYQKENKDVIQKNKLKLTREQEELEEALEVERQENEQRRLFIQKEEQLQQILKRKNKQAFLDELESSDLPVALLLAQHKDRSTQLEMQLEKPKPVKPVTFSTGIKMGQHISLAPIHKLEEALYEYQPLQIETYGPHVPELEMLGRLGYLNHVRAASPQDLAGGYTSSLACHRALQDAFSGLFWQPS
REPORTED METRIC: kinact (s⁻¹)

Example entries and their recorded answers appear below.
{"MOLECULE": "CC#CC(=O)N1CC(N2CCC(c3cc(C)c4c(c3)Nc3ncnc(N5CCOC6(COC6)C5)c3CO4)CC2)C1", "kinact, s⁻¹": "5.21e-05"}
{"MOLECULE": "C=CC(=O)N1CC(N2CC[C@H](c3cc(C)c4c(c3)Nc3ncnc(N5CCOCC5)c3CO4)C2)C1", "kinact, s⁻¹": "5.86e-05"}
{"MOLECULE": "C=CC(=O)N1CC(N2CC[C@H](c3cc4c(c(C)n3)OCc3c(ncnc3N3CCS(=O)(=O)CC3)N4)C2)C1", "kinact, s⁻¹": "5.87e-05"}
{"MOLECULE": "CC#CC(=O)N1CC(N2CCC(c3cc4c(c(C)n3)O[C@@H](C)c3c(ncnc3N3CCS(=O)(=O)CC3)N4)CC2)C1 (single isomer, unassigned)", "kinact, s⁻¹": "8.1e-05"}

P = C=CC(=O)N1CCC(N2CCC(c3ccc4c(c3)Nc3ncnc(N5CCOCC5)c3CO4)CC2)CC1
Q = C=CC(=O)N1CC(N2CCC(c3cc(C)c4c(c3)Nc3ncnc(N5CCC(S(C)(=O)=O)C5)c3CO4)CC2)C1 (stereo not drawn)
Ask: # min-compare on kinact between P and Q Return value: the label identifying the chosen record.
Result: P
(P: 6.34e-05 s⁻¹, Q: 0.0001 s⁻¹)

a = C=CC(=O)N1CC(N2CCC(c3cc(C)c4c(c3)Nc3ncnc(N5CCC(C#N)CC5)c3CO4)CC2)C1
b = C#Cc1cc(C2CN([C@H]3CCN(C(=O)C=C)C3)C2)cc2c1O[C@H](C)c1c(ncnc1N1CCS(=O)(=O)CC1)N2
Ask: Which is greater in kinact, the first item a or the second item b ? Return value: the label identifying the chosen record.
Result: a
(a: 6.3e-05 s⁻¹, b: 2.62e-05 s⁻¹)

###

target: CDK7/cyclinH/MAT1 trimeric complex (Homo sapiens (Human), UniProt P50613); assay: In vitro CDK7 assay, potency of irreversible covalent inhibitors (kinact/KI); conditions: read-out: CDK7 (20 nM enz.) (kinact, s^−1), 20 nM enz.
REPORTED METRIC: kinact (s⁻¹)

I = C=CC(=O)N1CC(N2CCC(c3cc(C)c4c(c3)Nc3ncnc(N5CCC(CCO)C5)c3CO4)CC2)C1 (stereo not shown) [compound 113]
II = C=CC(=O)N1CC[C@@H](N2CC(c3cc(F)c4c(c3)Nc3ncnc(N5CCOCC5)c3CO4)C2)C1 (single isomer, unassigned) [compound 55]
Ask: Which is greater in kinact, the first item I or the second item II ? Return value: the label identifying the chosen record.
Result: II

A = C=CC(=O)N1CC(N2CCC(c3cc4c(c(C5CC5)c3)OCc3c(ncnc3N3CCOCC3)N4)CC2)C1 [compound 47]
B = C=CC(=O)N1CCC(N2CC(c3cc(C)c4c(c3)Nc3ncnc(N5CCS(=N)(=O)CC5)c3CO4)C2)CC1 [compound 105]
Ask: Which is greater in kinact, the first item A or the second item B ? Return value: the label identifying the chosen record.
Result: A
(A: 7.35e-05 s⁻¹, B: 3.13e-05 s⁻¹)

P = C=CC(=O)N1CC[C@H](N2CC(c3cc(C)c4c(c3)Nc3ncnc(N5CCS(=O)(=O)CC5)c3[C@@H](C)O4)C2)C1 (single isomer, unassigned) [compound 117]
Q = C=CC(=O)N1CCC(N2CC(c3cc(Cl)c4c(c3)Nc3ncnc(C5CCOCC5)c3CO4)C2)CC1 [compound 19]
R = C=CC(=O)N1CCC(N2CC(c3cc4c(c(C5CC5)c3)O[C@@H](C)c3c(ncnc3N3CCS(=O)(=O)CC3)N4)C2)C1 (mixture of isomers) [compound 97]
Ask: Hello, I need these entries ordered by kinact, highest reading first. Thanks! Form field (ranking): labels in requested order.
Result: Q, P, R

a = CC#CC(=O)N1CC(N2CCC(c3cc(C)c4c(c3)Nc3ncnc(N5CCS(=O)(=O)CC5)c3[C@H](C)O4)CC2)C1 (single isomer, unassigned) [compound 150]
b = C=CC(=O)N1CCC(N2CC(c3cc(C)c4c(c3)Nc3ncnc(N5CCOCC5)c3CO4)C2)CC1 [compound 14]
Ask: Which is greater in kinact, the first item a or the second item b ? Return value: the label identifying the chosen record.
Result: a

###

For reference, IC50 measured on RNA polymerase II Serine 5 phosphorylation (CDK7) in A549 cells:
REPORTED METRIC: IC50 (µM)

{"COMPOUND": "C=CC(=O)N1CC(N2CCC(c3cc4c(cn3)O[C@H](C)c3c(ncnc3N3CCOCC3)N4)CC2)C1 (single isomer, unassigned) [compound 83]", "MEASURED NUMBER": 0.138}
{"COMPOUND": "C#Cc1cc(C2CCN(C3CN(C(=O)C#CC)C3)CC2)cc2c1O[C@@H](C)c1c(ncnc1N1CCS(=O)(=O)CC1)N2 [compound 191]", "MEASURED NUMBER": 0.191}

###

For reference, IC50 measured on RNA polymerase II Serine 5 phosphorylation (CDK7) in A549 cells:
REPORTED METRIC: IC50 (nM)

Example entries and their recorded answers appear below.
{"COMPOUND": "C=CC(=O)N1CC(N2CCC(c3cc(Cl)c4c(c3)Nc3ncnc(N5CCS(=O)(=O)CC5)c3CO4)CC2)C1 [compound 43]", "MEASURED NUMBER": 132}
{"COMPOUND": "CC#CC(=O)N1CC[C@H](N2CC(c3cc(C)c4c(c3)Nc3ncnc(N5CCS(=O)(=O)CC5)c3CO4)C2)C1 [compound 126]", "MEASURED NUMBER": 513}
{"COMPOUND": "C=CC(=O)N1CCC(N2CCN(c3cc(C)c4c(c3)Nc3ncnc(N5CCS(=O)(=O)CC5)c3CO4)CC2)CC1 [compound 89]", "MEASURED NUMBER": 955}
{"COMPOUND": "C=CC(=O)N1CC(N2CC[C@@H](c3ccc4c(c3)Nc3ncnc(N5CCOCC5)c3CO4)C2)C1 [compound 10]", "MEASURED NUMBER": 1820}

a = C=CC(=O)N1CC[C@@H](N2CC(c3cc4c(c(C5CC5)c3)O[C@@H](C)c3c(ncnc3N3CCS(=O)(=O)CC3)N4)C2)C1 (single isomer, unassigned) [compound 98]
b = C=CC(=O)N1CC(N2CCC(c3cc(F)c4c(c3)Nc3ncnc(N5CCOCC5)c3[C@@H](C)O4)CC2)C1 (single isomer, unassigned) [compound 46]
Ask: # min-compare on IC50 between a and b Return value: the label identifying the chosen record.
Result: b
(b: 209 nM, a: 347 nM)

###

target: CDK7/cyclinH/MAT1 trimeric complex (Homo sapiens (Human), UniProt P50613); experiment: In vitro CDK7 assay, potency of irreversible covalent inhibitors (kinact/KI); settings: read-out: CDK7 (20 nM enz.) (kinact, s^−1), 20 nM enz.
REPORTED METRIC: kinact (s⁻¹)

Example entries and their recorded answers appear below.
{"MOLECULE": "C=CC(=O)N1CC(N2CC(c3cc(C)c4c(c3)Nc3ncnc(N5CCS(=N)(=O)CC5)c3CO4)C2)C1", "MEASUREMENT TARGET": "CDK7/cyclinH/MAT1 trimeric complex (Homo sapiens (Human), UniProt P50613)", "REPORTED METRIC": "kinact", "MEASURED NUMBER": "4.3e-05"}
{"MOLECULE": "C=CC(=O)N1CC(N2C3CCC2CC(c2ccc4c(c2)Nc2ncnc(N5CCOCC5)c2CO4)C3)C1 (centres unmarked)", "MEASUREMENT TARGET": "CDK7/cyclinH/MAT1 trimeric complex (Homo sapiens (Human), UniProt P50613)", "REPORTED METRIC": "kinact", "MEASURED NUMBER": "5.56e-05"}
{"MOLECULE": "CC#CC(=O)N1CCC(N2CC(c3cc(C)c4c(c3)Nc3ncnc(N5CCS(=O)(=O)CC5)c3CO4)C2)CC1", "MEASUREMENT TARGET": "CDK7/cyclinH/MAT1 trimeric complex (Homo sapiens (Human), UniProt P50613)", "REPORTED METRIC": "kinact", "MEASURED NUMBER": "2.65e-05"}
{"MOLECULE": "C#Cc1cc(C2CN([C@H]3CCN(C(=O)C=C)C3)C2)cc2c1O[C@@H](C)c1c(ncnc1N1CCS(=O)(=O)CC1)N2", "MEASUREMENT TARGET": "CDK7/cyclinH/MAT1 trimeric complex (Homo sapiens (Human), UniProt P50613)", "REPORTED METRIC": "kinact", "MEASURED NUMBER": "2.42e-05"}
{"MOLECULE": "C=CC(=O)N1CC(N2CCC(c3ccc4c(c3)Nc3ncnc(N5CCOCC5)c3[C@H](CC)O4)CC2)C1 (single isomer, unassigned)", "MEASUREMENT TARGET": "CDK7/cyclinH/MAT1 trimeric complex (Homo sapiens (Human), UniProt P50613)", "REPORTED METRIC": "kinact", "MEASURED NUMBER": "3.84e-05"}

I = C=CC(=O)N1CC[C@H](N2CCC(c3cc(F)c4c(c3)Nc3ncnc(N5CCOCC5)c3CO4)CC2)C1 (single isomer, unassigned)
II = C=CC(=O)N1CCC(N2CC(c3cc4c(c(C)n3)OCc3c(ncnc3N3CCS(=O)(=O)CC3)N4)C2)CC1
III = C=CC(=O)N1CC(N2CCC(c3cc(F)c4c(c3)Nc3ncnc(N5CCOCC5)c3[C@@H](C)O4)CC2)C1 (single isomer, unassigned)
Ask: Hello, I need these entries ordered by kinact, highest reading first. Thanks! Form field (ranking): labels in requested order.
Result: I, III, II
